Values from the supplement of paper PMC6555819

Tested on: THRa:RXRa (NR concentration 90 nM, RXRa partner concentration 90 nM)
assay.comment: PBM binding z-score (relative to random genomic background probes); higher = stronger binding; sequences stand for … in GC…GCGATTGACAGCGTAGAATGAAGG
endpoint.name: PBM binding z-score
No unit in the answer, only the number.

Reference set (5 entries):
> print(dat)
                       sequence.input        endpoint.name  result.number
1  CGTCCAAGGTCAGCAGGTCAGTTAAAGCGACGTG  PBM binding z-score           4.27
2  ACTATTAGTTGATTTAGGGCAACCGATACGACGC  PBM binding z-score           1.52
3  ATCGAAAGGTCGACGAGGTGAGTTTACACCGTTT  PBM binding z-score            3.8
4  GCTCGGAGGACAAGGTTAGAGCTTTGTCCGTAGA  PBM binding z-score           1.28
5  CCGGCTGGGGCAGAAAGGTTACCATACCATCCGG  PBM binding z-score          0.969

Exercise: Report PBM binding z-score for "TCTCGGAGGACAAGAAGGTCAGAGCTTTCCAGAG"
Key: 2.09

Exercise: State its PBM binding z-score: "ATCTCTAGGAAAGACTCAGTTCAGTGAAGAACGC"
Key: 0.203

Exercise: For the sequence "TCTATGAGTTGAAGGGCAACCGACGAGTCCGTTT" , report PBM binding z-score.
Key: 0.511

* * *

System: VDR homodimer (NR concentration 270 nM)
assay.comment: PBM binding z-score (relative to random genomic background probes); higher = stronger binding; sequences stand for … in GC…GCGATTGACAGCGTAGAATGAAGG
endpoint.name: PBM binding z-score
Keep the answer to the number alone.

// below: answered sequences
> print(dat)
                        sequence.input                          target.of.assay  result.number
 1  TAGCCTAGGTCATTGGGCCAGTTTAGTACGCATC  VDR homodimer (NR concentration 270 nM)           1.46
 2  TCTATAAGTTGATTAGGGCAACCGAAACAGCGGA  VDR homodimer (NR concentration 270 nM)          0.543
 3  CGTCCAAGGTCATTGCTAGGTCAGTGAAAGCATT  VDR homodimer (NR concentration 270 nM)           4.55
 4  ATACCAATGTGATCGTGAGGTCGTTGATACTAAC  VDR homodimer (NR concentration 270 nM)           2.83
 5  CAAACTAGGTCAAAGGTAAAAGTCGAGCCAACCA  VDR homodimer (NR concentration 270 nM)          0.479
 6  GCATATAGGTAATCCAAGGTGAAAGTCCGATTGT  VDR homodimer (NR concentration 270 nM)         0.0892
 7  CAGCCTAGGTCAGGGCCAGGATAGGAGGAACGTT  VDR homodimer (NR concentration 270 nM)         -0.171
 8  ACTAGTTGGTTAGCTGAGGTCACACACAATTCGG  VDR homodimer (NR concentration 270 nM)           3.78
 9  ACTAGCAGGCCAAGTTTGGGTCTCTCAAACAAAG  VDR homodimer (NR concentration 270 nM)         -0.181
10  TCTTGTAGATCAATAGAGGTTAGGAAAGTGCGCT  VDR homodimer (NR concentration 270 nM)           0.48

Exercise: State the measured PBM binding z-score (VDR homodimer (NR concentration 270 nM)) of "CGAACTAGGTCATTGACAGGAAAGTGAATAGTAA"
Key: 0.797

Exercise: Would you please give the reported PBM binding z-score of "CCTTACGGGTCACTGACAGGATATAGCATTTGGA" with VDR homodimer (NR concentration 270 nM)?
Key: 0.961

Exercise: For VDR homodimer (NR concentration 270 nM), give the measured PBM binding z-score of the entry "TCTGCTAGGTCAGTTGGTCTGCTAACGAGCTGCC"
Key: -0.575

Exercise: Specify the recorded PBM binding z-score for "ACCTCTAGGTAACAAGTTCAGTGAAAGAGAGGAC" , system: VDR homodimer (NR concentration 270 nM).
Key: 2.2

Exercise: Quote VDR homodimer (NR concentration 270 nM) PBM binding z-score for entry "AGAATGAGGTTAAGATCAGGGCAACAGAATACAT" .
Key: 0.984

* * *

Test system: PPARg:RXRa 270nM:90nM, anti-RXR (NR concentration 270 nM, RXRa partner concentration 90 nM)
assay.comment: PBM binding z-score (relative to random genomic background probes); higher = stronger binding; sequences stand for … in GC…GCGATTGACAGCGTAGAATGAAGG
endpoint.name: PBM binding z-score
Give the figure by itself; no unit, no explanation.

> print(dat)
                       sequence.input  result.number
1  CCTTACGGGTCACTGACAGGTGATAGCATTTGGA           4.97
2  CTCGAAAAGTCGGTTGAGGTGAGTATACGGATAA         -0.172
3  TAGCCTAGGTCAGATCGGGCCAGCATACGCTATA          0.901
4  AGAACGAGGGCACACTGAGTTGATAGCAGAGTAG           1.64
5  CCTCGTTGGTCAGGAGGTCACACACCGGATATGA           2.99

Exercise: Give a short answer stating reported PBM binding z-score for "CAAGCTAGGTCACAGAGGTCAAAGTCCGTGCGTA" .
Key: 6.52

Exercise: Find the measured PBM binding z-score of "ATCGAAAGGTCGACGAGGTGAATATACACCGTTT" and report it.
Key: 3.62

Exercise: Supply measured PBM binding z-score of "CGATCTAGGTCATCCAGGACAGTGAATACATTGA" in your reply.
Key: 6.3

Exercise: Specify measured PBM binding z-score for "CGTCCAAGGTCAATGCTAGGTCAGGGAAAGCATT" .
Key: 4.52

* * *

Tested on: LXRb:RXRa (NR concentration 270 nM, RXRa partner concentration 90 nM)
assay.comment: PBM binding z-score (relative to random genomic background probes); higher = stronger binding; sequences stand for … in GC…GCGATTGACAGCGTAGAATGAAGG
Entry flag: T if PBM binding z-score reaches 3; F if it does not.

> print(dat)
                       sequence.input  assigned.class
1  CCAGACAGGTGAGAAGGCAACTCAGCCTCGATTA               F
2  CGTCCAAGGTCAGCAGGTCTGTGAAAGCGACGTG               F
3  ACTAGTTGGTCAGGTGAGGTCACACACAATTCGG               T
4  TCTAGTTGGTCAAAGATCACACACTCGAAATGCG               F
5  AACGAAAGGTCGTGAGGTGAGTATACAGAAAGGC               T

Moving on to another sequence below.
Exercise: Is the recorded value of PBM binding z-score equal to or greater than 3 for this sequence? "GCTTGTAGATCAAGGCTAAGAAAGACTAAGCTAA"
Key: F

* * *

Tested on: RARb homodimer (NR concentration 270 nM)
assay.comment: PBM binding z-score (relative to random genomic background probes); higher = stronger binding; sequences stand for … in GC…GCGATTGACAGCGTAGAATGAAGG
Lab note: compare PBM binding z-score against 3. Equal or greater, write yes (1). Smaller, write no (0).

For orientation, consider the following solved cases.
> print(dat)
                       sequence.input  assigned.class
1  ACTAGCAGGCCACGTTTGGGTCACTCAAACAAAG          no (0)
2  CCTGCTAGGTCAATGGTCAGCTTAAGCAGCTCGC         yes (1)
3  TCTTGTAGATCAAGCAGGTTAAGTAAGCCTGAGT          no (0)

Exercise: Does the sequence "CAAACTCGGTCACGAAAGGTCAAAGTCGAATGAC" have recorded PBM binding z-score that is 3 or more?
Key: yes (1)

Exercise: Would you say "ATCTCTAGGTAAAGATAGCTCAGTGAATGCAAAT" shows PBM binding z-score at minimum 3?
Key: no (0)

Exercise: API: above_or_equal(metric=PBM binding z-score, cutoff=3) for item "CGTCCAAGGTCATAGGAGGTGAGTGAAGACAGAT"
Key: yes (1)

* * *

Tested on: LXRb homodimer (NR concentration 270 nM)
assay.comment: PBM binding z-score (relative to random genomic background probes); higher = stronger binding; sequences stand for … in GC…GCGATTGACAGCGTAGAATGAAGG
endpoint.name: PBM binding z-score
Answer as a number with no unit attached.

> print(dat)
                       sequence.input        endpoint.name  result.number
1  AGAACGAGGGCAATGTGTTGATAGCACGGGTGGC  PBM binding z-score         -0.324
2  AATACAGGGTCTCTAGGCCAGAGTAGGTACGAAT  PBM binding z-score         -0.462
3  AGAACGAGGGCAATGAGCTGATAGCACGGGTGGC  PBM binding z-score         -0.559
4  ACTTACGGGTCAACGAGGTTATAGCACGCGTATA  PBM binding z-score          0.794
5  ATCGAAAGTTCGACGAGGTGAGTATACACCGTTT  PBM binding z-score          0.233
6  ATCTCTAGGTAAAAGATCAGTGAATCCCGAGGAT  PBM binding z-score          0.167
7  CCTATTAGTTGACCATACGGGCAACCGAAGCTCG  PBM binding z-score          0.519
8  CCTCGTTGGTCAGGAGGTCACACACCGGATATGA  PBM binding z-score           0.47

Here's the next entry for you.
Exercise: Print LXRb homodimer (NR concentration 270 nM) PBM binding z-score for "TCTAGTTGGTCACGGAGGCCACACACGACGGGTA" .
Key: -0.0385
